- measurement.notes: Intravenous and intraduodenal (bolus) bioavailability of zanamivir from Capmul MCM L8 25, 50, 75 µL (Example 7)
- cond: male, Sprague-Dawley, rat, in vivo, 1.5 mg, t1/2, summary; intraduodenal, 1.5 mg/animal, 25 μL Capmul MCM L8
measured.property: half-life (min)
Numbers only, in min.

Request the reported half-life associated with CC(=O)NC1C(NC(=N)N)C=C(C(=O)O)OC1C(O)C(O)CO (stereo not shown) [Zanamivir] 27.2

###

- measurement.notes: Intraduodenal bioavailability of zanamivir from glycerol and PBS formulations, enhancer pre-dose (Example 6)
- cond: male, Sprague-Dawley, rat, in vivo, 1.5 mg/animal, Plasma concentration, ID 1.5 mg/animal, 100 µL Glycerol; 1.5 hr; mean
- Experimental: Male Sprague-Dawley rats (Hilltop Labs), 3 animals per treatment group, 250-350 grams in weight, were fitted with a jugular vein cannula (JVC). Animals intended for intraduodenal dosing were also fitted with one or more intraduodenal cannula (IDC) and those intended for intravenous dosing were fitted with a second JVC. […] In this example, the bioavailability of Zanamivir was evaluated after intraduodenal doses in male Sprague-Dawley rats. […] Plasma levels were determined by LC-MS/MS analysis. […]
measured.property: concentration at 1.5 hr (ng/mL)
Answers are plain numbers, in ng/mL.

Look at this molecule and give its reported concentration at 1.5 hr. CC(=O)NC1C(NC(=N)N)C=C(C(=O)O)OC1C(O)C(O)CO (stereo not shown) [Zanamivir] 46.9

###

- measurement.notes: Intraduodenal bioavailability of zanamivir from glycerol and PBS formulations, enhancer pre-dose (Example 6)
- cond: male, Sprague-Dawley, rat, in vivo, 1.5 mg/animal, Plasma concentration, ID 1.5 mg/animal, 50 µL PBS, 50 µL blank Capmul MCM L8 -2 hr; 1.0 hr; individual rats
measured.property: concentration at 1 hr

Value lookup for concentration at 1 hr; key = CC(=O)NC1C(NC(=N)N)C=C(C(=O)O)OC1C(O)C(O)CO (stereo not shown) 33 ng/mL

###

- measurement.notes: Intravenous and intraduodenal (bolus) bioavailability of zanamivir from Capmul MCM L8 25, 50, 75 µL (Example 7)
- cond: male, Sprague-Dawley, rat, in vivo, 1.5 mg/animal, Plasma concentration, ID bolus 1.5 mg/animal, 50 µL Capmul MCM L8, Ex.7; 1.5 hr; individual rats
measured.property: concentration at 1.5 hr (ng/mL)
Give bare numbers, in ng/mL.

If you can, please state the reported concentration at 1.5 hr value of CC(=O)NC1C(NC(=N)N)C=C(C(=O)O)OC1C(O)C(O)CO (stereo not shown) [Zanamivir] . 216

###

- measurement.notes: Intravenous and intraduodenal bioavailability of zanamivir from three formulations (Example 5)
- cond: male, Sprague-Dawley, rat, in vivo, iv, 1.5 mg/animal, Plasma concentration, IV 1.5 mg/animal, Normal Saline, Ex.5; 0.033 hr; mean
measured.property: concentration at 0.033 hr (ng/mL)
One number for each entry, in ng/mL.

Report concentration at 0.033 hr for CC(=O)NC1C(NC(=N)N)C=C(C(=O)O)OC1C(O)C(O)CO (stereo not shown) please. 24800
